Value source: ChEMBL document CHEMBL5543097

System: Staphylococcus epidermidis
test_description: Antibacterial activity against erythromycin-resistant Staphylococcus epidermidis 19-11 assessed as inhibition of visible bacterial growth incubated for 18 hrs by broth microdilution method
Assay type: functional
Hi there, I'd appreciate the recorded MIC for every entry that follows.
One number for each entry, in mg/L.

{"compound_structure": "CCOc1ccc(NC(=O)OCCCN2C(=O)O[C@]3(C)[C@@H](CC)OC(=O)[C@@](C)(F)C(=O)[C@H](C)[C@@H](O[C@@H]4O[C@H](C)C[C@H](N(C)C)[C@H]4O)[C@](C)(OC)C[C@@H](C)C(=O)[C@H](C)[C@@H]23)cc1", "val": 0.125}
{"compound_structure": "CC[C@H]1OC(=O)[C@@](C)(F)C(=O)[C@H](C)[C@@H](O[C@@H]2O[C@H](C)C[C@H](N(C)C)[C@H]2O)[C@](C)(OC)C[C@@H](C)C(=O)[C@H](C)[C@H]2N(CCCOC(=O)Nc3cccc(SC)c3)C(=O)O[C@]12C", "val": 0.03}
{"compound_structure": "CC[C@H]1OC(=O)[C@H](C)C(=O)[C@H](C)[C@@H](O[C@@H]2O[C@H](C)C[C@H](N(C)C)[C@H]2O)[C@](C)(OC)C[C@@H](C)C(=O)[C@H](C)[C@H]2N(CCCCn3cnc(-c4cccnc4)c3)C(=O)O[C@]12C", "val": 0.25}

Lab note: each compound below needs its MIC filled in.
1. CC[C@H]1OC(=O)[C@@](C)(F)C(=O)[C@H](C)[C@@H](O[C@@H]2O[C@H](C)C[C@H](N(C)C)[C@H]2O)[C@](C)(OC)C[C@@H](C)C(=O)[C@H](C)[C@H]2N(CCCOC(=O)Nc3ccccc3[N+](=O)[O-])C(=O)O[C@]12C
2. CC[C@H]1OC(=O)[C@@](C)(F)C(=O)[C@H](C)[C@@H](O[C@@H]2O[C@H](C)C[C@H](N(C)C)[C@H]2O)[C@](C)(OC)C[C@@H](C)C(=O)[C@H](C)[C@H]2N(CCCOC(=O)Nc3ccc(C(C)C)cc3)C(=O)O[C@]12C
3. CC[C@H]1OC(=O)[C@@](C)(F)C(=O)[C@H](C)[C@@H](O[C@@H]2O[C@H](C)C[C@H](N(C)C)[C@H]2O)[C@](C)(OC)C[C@@H](C)C(=O)[C@H](C)[C@H]2N(CCCOC(=O)Nc3cccc(C(F)(F)F)c3)C(=O)O[C@]12C

0.125
0.25
0.25

====

test_description: Cytotoxicity against mouse AML12 cells assessed as reduction in cell viability incubated for 48 hrs by MTT assay
Assay type: toxicity, cell-based
measurement_name: CC50 at 48 h

The following compounds have reported results that may help.
{"compound_structure": "CC[C@H]1OC(=O)[C@@](C)(F)C(=O)[C@H](C)[C@@H](O[C@@H]2O[C@H](C)C[C@H](N(C)C)[C@H]2O)[C@](C)(OC)C[C@@H](C)C(=O)[C@H](C)[C@H]2N(CCCOC(=O)Nc3cccs3)C(=O)O[C@]12C", "measurement_name": "CC50 at 48 h", "val": "> 100 µM"}
{"compound_structure": "CC[C@H]1OC(=O)[C@H](C)[C@@H](O[C@H]2C[C@@](C)(OC)[C@@H](O)[C@H](C)O2)[C@H](C)[C@@H](O[C@@H]2O[C@H](C)C[C@H](N(C)C)[C@H]2O)[C@](C)(O)C[C@@H](C)C(=O)[C@H](C)[C@@H](O)[C@]1(C)O", "measurement_name": "CC50 at 48 h", "val": "> 100 µM"}
{"compound_structure": "CC[C@H]1OC(=O)[C@@](C)(F)C(=O)[C@H](C)[C@@H](O[C@@H]2O[C@H](C)C[C@H](N(C)C)[C@H]2O)[C@](C)(OC)C[C@@H](C)C(=O)[C@H](C)[C@H]2N(CCCOC(=O)Nc3ccccc3C)C(=O)O[C@]12C", "measurement_name": "CC50 at 48 h", "val": "> 100 µM"}
{"compound_structure": "CCOc1ccccc1NC(=O)OCCCN1C(=O)O[C@]2(C)[C@@H](CC)OC(=O)[C@@](C)(F)C(=O)[C@H](C)[C@@H](O[C@@H]3O[C@H](C)C[C@H](N(C)C)[C@H]3O)[C@](C)(OC)C[C@@H](C)C(=O)[C@H](C)[C@@H]12", "measurement_name": "CC50 at 48 h", "val": "> 100 µM"}
{"compound_structure": "CC[C@H]1OC(=O)[C@H](C)[C@@H](O[C@H]2C[C@@](C)(OC)[C@@H](O)[C@H](C)O2)[C@H](C)[C@@H](O[C@@H]2O[C@H](C)C[C@H](N(C)C)[C@H]2O)[C@](C)(O)C[C@@H](C)CN(C)[C@H](C)[C@@H](O)[C@]1(C)O", "measurement_name": "CC50 at 48 h", "val": "> 100 µM"}

Can you share its CC50 at 48 h? I mean this compound: CC[C@H]1OC(=O)[C@@](C)(F)C(=O)[C@H](C)[C@@H](O[C@@H]2O[C@H](C)C[C@H](N(C)C)[C@H]2O)[C@](C)(OC)C[C@@H](C)C(=O)[C@H](C)[C@H]2N(CCCOC(=O)Nc3ccc4c(c3)CCO4)C(=O)O[C@]12C
> 100 µM

====

Test system: Staphylococcus epidermidis
test_description: Antibacterial activity against erythromycin-resistant Staphylococcus epidermidis 19-11 assessed as inhibition of visible bacterial growth incubated for 18 hrs by broth microdilution method
Type: functional
Under this convention, rule met denotes MIC strictly below 0.2 µg/mL and rule not met denotes MIC at or above 0.2 µg/mL.

Here's what some known entries look like.
{"molecule": "CC[C@H]1OC(=O)[C@@](C)(F)C(=O)[C@H](C)[C@@H](O[C@@H]2O[C@H](C)C[C@H](N(C)C)[C@H]2O)[C@](C)(OC)C[C@@H](C)C(=O)[C@H](C)[C@H]2N(CCCOC(=O)Nc3ccc(-c4ccccc4)cc3)C(=O)O[C@]12C", "system_tested": "Staphylococcus epidermidis", "classification": "rule not met"}
{"molecule": "CC[C@H]1OC(=O)[C@@](C)(F)C(=O)[C@H](C)[C@@H](O[C@@H]2O[C@H](C)C[C@H](N(C)C)[C@H]2O)[C@](C)(OC)C[C@@H](C)C(=O)[C@H](C)[C@H]2N(CCCOC(=O)Nc3ccc(C)cc3)C(=O)O[C@]12C", "system_tested": "Staphylococcus epidermidis", "classification": "rule met"}

Say whether its MIC is strictly beneath 0.2 µg/mL. Entry: CC[C@H]1OC(=O)[C@@](C)(F)C(=O)[C@H](C)[C@@H](O[C@@H]2O[C@H](C)C[C@H](N(C)C)[C@H]2O)[C@](C)(OC)C[C@@H](C)C(=O)[C@H](C)[C@H]2N(CCCOC(=O)Nc3ccccc3OC)C(=O)O[C@]12C
rule met

Say whether its MIC is strictly beneath 0.2 µg/mL. Entry: CC[C@H]1OC(=O)[C@H](C)[C@@H](O[C@H]2C[C@@](C)(OC)[C@@H](O)[C@H](C)O2)[C@H](C)[C@@H](O[C@@H]2O[C@H](C)C[C@H](N(C)C)[C@H]2O)[C@](C)(OC)C[C@@H](C)C(=O)[C@H](C)[C@@H](O)[C@]1(C)O [CLARITHROMYCIN]
rule not met

====

Hi there, I'd appreciate the recorded MIC for every entry that follows.
Tested on: Haemophilus influenzae
test_description: Antibacterial activity against Haemophilus influenzae HIN 20-18 assessed as inhibition of bacterial growth incubated for 20 to 24 hrs by CLSI based broth microdilution method
Format: functional
conditions_used: time 20-24 hrs
One number for each entry, in µg/mL.

The following compounds have reported results that may help.
{"compound_structure": "CC[C@H]1OC(=O)[C@@](C)(F)C(=O)[C@H](C)[C@@H](O[C@@H]2O[C@H](C)C[C@H](N(C)C)[C@H]2O)[C@](C)(OC)C[C@@H](C)C(=O)[C@H](C)[C@H]2N(CCCOC(=O)Nc3c(C)noc3C)C(=O)O[C@]12C", "units": "µg/mL", "MIC": 8}
{"compound_structure": "CC[C@H]1OC(=O)[C@@](C)(F)C(=O)[C@H](C)[C@@H](O[C@@H]2O[C@H](C)C[C@H](N(C)C)[C@H]2O)[C@](C)(OC)C[C@@H](C)C(=O)[C@H](C)[C@H]2N(CCCOC(=O)Nc3ccc(Cl)cc3C)C(=O)O[C@]12C", "units": "µg/mL", "MIC": 16}
{"compound_structure": "CC[C@H]1OC(=O)[C@@](C)(F)C(=O)[C@H](C)[C@@H](O[C@@H]2O[C@H](C)C[C@H](N(C)C)[C@H]2O)[C@](C)(OC)C[C@@H](C)C(=O)[C@H](C)[C@H]2N(CCCOC(=O)Nc3ccc4c(c3)CCO4)C(=O)O[C@]12C", "units": "µg/mL", "MIC": 8}
{"compound_structure": "CC[C@H]1OC(=O)[C@@](C)(F)C(=O)[C@H](C)[C@@H](O[C@@H]2O[C@H](C)C[C@H](N(C)C)[C@H]2O)[C@](C)(OC)C[C@@H](C)C(=O)[C@H](C)[C@H]2N(CCCOC(=O)Nc3ccccc3C)C(=O)O[C@]12C", "units": "µg/mL", "MIC": 16}
{"compound_structure": "CC[C@H]1OC(=O)[C@@](C)(F)C(=O)[C@H](C)[C@@H](O[C@@H]2O[C@H](C)C[C@H](N(C)C)[C@H]2O)[C@](C)(OC)C[C@@H](C)C(=O)[C@H](C)[C@H]2N(CCCOC(=O)Nc3ccc4c(c3)OCO4)C(=O)O[C@]12C", "units": "µg/mL", "MIC": 8}

Lab note: each compound below needs its MIC filled in.
1. CC[C@H]1OC(=O)[C@@](C)(F)C(=O)[C@H](C)[C@@H](O[C@@H]2O[C@H](C)C[C@H](N(C)C)[C@H]2O)[C@](C)(OC)C[C@@H](C)C(=O)[C@H](C)[C@H]2N(CCCOC(=O)Nc3cc(C)ccc3C)C(=O)O[C@]12C
2. CC[C@H]1OC(=O)[C@@](C)(F)C(=O)[C@H](C)[C@@H](O[C@@H]2O[C@H](C)C[C@H](N(C)C)[C@H]2O)[C@](C)(OC)C[C@@H](C)C(=O)[C@H](C)[C@H]2N(CCCOC(=O)Nc3ccccc3Cl)C(=O)O[C@]12C

[16, 16]
